Target or system: rat collagen (acid soluble, type I, rat tail, Upstate 08-115) (rat) (UniProt P02454)
Sequence (P02454 152-1207 limits assumed, chain 1 of 2): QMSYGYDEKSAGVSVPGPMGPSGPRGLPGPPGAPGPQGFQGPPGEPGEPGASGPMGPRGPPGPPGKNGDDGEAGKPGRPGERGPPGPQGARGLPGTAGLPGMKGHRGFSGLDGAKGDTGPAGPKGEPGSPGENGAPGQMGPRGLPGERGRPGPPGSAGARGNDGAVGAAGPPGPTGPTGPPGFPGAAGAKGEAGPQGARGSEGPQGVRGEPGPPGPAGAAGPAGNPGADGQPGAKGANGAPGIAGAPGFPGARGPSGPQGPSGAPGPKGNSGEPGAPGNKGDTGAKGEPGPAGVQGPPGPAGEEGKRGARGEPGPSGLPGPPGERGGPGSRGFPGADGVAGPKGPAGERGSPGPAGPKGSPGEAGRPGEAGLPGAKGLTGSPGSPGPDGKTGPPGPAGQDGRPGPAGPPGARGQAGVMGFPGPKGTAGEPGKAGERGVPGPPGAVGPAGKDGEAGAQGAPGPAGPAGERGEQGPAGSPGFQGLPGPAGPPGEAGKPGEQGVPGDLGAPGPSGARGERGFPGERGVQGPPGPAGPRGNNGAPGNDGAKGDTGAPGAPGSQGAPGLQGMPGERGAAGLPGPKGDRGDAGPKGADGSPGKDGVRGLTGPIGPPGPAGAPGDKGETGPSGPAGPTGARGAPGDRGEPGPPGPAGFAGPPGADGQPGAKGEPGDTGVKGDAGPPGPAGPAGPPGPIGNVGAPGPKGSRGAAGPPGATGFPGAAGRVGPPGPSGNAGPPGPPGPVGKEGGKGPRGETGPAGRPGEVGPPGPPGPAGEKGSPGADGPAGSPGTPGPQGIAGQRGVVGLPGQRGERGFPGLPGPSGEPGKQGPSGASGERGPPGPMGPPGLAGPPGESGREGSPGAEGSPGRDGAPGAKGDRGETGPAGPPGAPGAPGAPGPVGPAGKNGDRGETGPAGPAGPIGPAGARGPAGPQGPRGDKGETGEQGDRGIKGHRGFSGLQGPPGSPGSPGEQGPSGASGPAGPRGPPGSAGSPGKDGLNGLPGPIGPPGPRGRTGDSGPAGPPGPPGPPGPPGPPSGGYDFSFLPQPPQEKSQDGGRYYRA
Sequence (P02466 86-1125 limits assumed, chain 2 of 2, further chain): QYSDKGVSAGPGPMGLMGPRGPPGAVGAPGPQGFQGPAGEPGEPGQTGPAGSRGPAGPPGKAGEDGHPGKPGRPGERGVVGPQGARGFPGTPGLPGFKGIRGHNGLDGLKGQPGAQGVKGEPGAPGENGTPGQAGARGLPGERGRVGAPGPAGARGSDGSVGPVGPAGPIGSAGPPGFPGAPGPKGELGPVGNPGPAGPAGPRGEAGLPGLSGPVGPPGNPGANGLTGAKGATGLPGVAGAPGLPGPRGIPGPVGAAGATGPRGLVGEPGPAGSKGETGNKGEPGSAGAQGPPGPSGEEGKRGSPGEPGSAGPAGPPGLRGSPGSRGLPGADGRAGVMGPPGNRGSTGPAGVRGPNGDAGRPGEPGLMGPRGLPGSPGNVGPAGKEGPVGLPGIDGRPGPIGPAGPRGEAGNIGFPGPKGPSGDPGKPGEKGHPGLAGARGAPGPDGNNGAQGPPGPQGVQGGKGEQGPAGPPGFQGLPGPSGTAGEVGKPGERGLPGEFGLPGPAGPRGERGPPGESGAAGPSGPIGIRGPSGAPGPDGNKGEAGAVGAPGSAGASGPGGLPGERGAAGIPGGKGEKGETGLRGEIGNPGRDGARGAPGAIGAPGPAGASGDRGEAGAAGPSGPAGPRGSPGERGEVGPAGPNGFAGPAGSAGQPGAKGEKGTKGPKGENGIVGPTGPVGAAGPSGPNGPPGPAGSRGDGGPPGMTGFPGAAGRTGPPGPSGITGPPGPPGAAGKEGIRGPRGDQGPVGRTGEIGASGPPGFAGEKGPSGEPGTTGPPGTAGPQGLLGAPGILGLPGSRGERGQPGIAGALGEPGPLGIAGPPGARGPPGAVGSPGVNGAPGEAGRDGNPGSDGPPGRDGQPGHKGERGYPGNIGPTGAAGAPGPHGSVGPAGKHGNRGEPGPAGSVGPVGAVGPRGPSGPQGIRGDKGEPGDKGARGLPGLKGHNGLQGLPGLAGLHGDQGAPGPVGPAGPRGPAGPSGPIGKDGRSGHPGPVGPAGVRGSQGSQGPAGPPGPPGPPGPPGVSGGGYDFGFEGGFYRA
Test: dried collagen assay
Bridge positions count the residues as written; N and C are the ends. Primed or numbered codes have the meaning given here. Side chains are listed from the residue outwards. Ends that are not written are not given here. Glu‑DTPA‑Gd = N-terminal Glu-DTPA-Gd chelate (gadolinium DTPA complex on glutamic acid); Gd^T″ = GdDTPA-thiourea; AEEA = NCCOCCOCC(=O)O
Metric name: % bound (%)

Reference set (3 entries):
Binder	% bound [%]
{Glu‑DTPA‑Gd}-WWGCRQGTGEHWSHCMWF-{AEEA-Glu‑DTPA‑Gd} (cysteine pairing not given here; also: Gd chelated by DTPA at each end) [SEQ ID NO: 195]	9
GQWHCTTLFPHHYCLYG (not fully specified; Gd^T-GQWHCTTLFPHHyCLYG) [Comp ID 907]	1
{Gd^T″}-GK([Gly-Gd^T″])WHCTTLFPHHVCLYG (disulfide 5-14 (inferred); not fully specified (C-terminus); printed as Gd^T-G-K(G.Gd^T)-WHCTTLFPHHVCLYG) [Comp ID 966]	8

(1) GQWHCTTRFPHHFCLYG (not fully specified; Gd^T-GQWHCTTRFPHHfCLYG) [Comp ID 901]
(2) {Glu‑DTPA‑Gd}-GGDWTCVGDHKTWKCNFH-NH2 (disulfide 6-15 (inferred)) [Compound ID 1023]
Min % bound? 1 | 2 Write the label of whichever entry you select.
1
